Molecular target: T1, corticotropin-releasing hormone (CRH) peptide (human and mouse (same sequence), not fully specified)
T1 peptide: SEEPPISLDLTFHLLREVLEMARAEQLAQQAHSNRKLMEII
Assay: cell-based or functional assay
Measurement type: hCRHR1 Luciferase Reporter Assay IC50
A complete answer gives the number followed by the unit.

Lookup: Which hCRHR1 Luciferase Reporter Assay IC50 value is on record for PR302069 (antibody, human IgG1, kappa, V domains shown, humanized variant of PR301777) VH: EMQLVESGGGLVKPGGSLRLSCAASGFTFSNYWMNWVRQAPGKGLEWVAEIRLKSNNYATHYAESVKGRFTISRDDSKSTVYLQMNSLKTEDTAVYYCTVGTLVYWGQGTLVTVSS VL: DIQLTQSPSSLSASVGDRVTITCRASQSVSTSTYNYMHWFQQKPGKAPKLLIKFASNLESGVPSRFSGSGSGTDFTLTISSLQPEDTATYYCQHSWEIPYTFGQGTKLEIKR ?
Found: 1.54 nM

Lookup: What would you report for PR302048 (antibody, human IgG1, kappa, V domains shown, humanized variant of PR301777) VH: EVQLVESGGGLVQPGGSLKLSCAASGFTFSNYWMNWVRQASGKGLEWVGEIRLKSNNYATHYAESVKGRFTISRDDSKNTAYLQMNSLKTEDTAVYYCTRGTLVYWGQGTLVTVSS VL: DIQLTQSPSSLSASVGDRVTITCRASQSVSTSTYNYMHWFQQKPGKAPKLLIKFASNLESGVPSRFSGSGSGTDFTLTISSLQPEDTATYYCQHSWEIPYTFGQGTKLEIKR ?
Found: 6.66 nM

Lookup: What would you report for PR302041 (antibody, human IgG1, kappa, V domains shown, humanized variant of PR301777) VH: EMQLVESGGGLVQPGGSLRLSCAASGFTFSNYWMNWVRQAPGKGLEWVAEIRLKSNNYATHYAESVKGRFTISRDDSKSSVYLQMNSLKTEDTAVYYCTVGTLVYWGQGTLVTVSS VL: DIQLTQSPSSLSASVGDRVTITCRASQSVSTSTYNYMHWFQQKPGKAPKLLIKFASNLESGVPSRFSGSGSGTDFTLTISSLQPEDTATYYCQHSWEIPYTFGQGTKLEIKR ?
Found: 2.54 nM
